These entries and their values trace back to PubChem BioAssay (EPA / NIEHS).

- TEST SUMMARY: BSK_KF3CT_SRB: Viability Assessment in the BioMAP Diversity Plus: KF3CT Assay (AID 2283069);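 note: total protein by sulforhodamine B staining as a cytotoxicity measure; read 24 h after compound addition; fitted for both signal gain and loss against DMSO baseline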
- CONDITIONS USED: primary human keratinocytes with fibroblasts
Active and inactive are the calls of the source. Rule for the calls: active = hit-call score of the fitted dose curve at least 0.9, where 1 is the maximum; inactive = score below 0.9.
Can you answer with just one of these options? t for active, f for inactive

1) c1ccc2ccccc2c1
f
2) Cc1ncc(CO)c(CO)c1O
f
3) CN1C(=O)CC[C@H]1c1cccnc1
f
4) CC(=O)N1CCN(c2ccc(OC[C@H]3CO[C@](Cn4ccnc4)(c4ccc(Cl)cc4Cl)O3)cc2)CC1
t

Q) Name the outcome recorded for `Cc1ccc2oc(CN(Cc3ccccc3)C(=O)Nc3c(F)cc(F)cc3F)c(-c3ccc(Cl)cc3)c2c1` in the assay.
A) f

Q) Please share the test call associated with `Cc1ccc(C(C)C)cc1` .
A) f

Q) What call does the record list for `O=C1CCC(C2CCCCC2)CC1` ?
A) f

Q) Hi team, can someone confirm the assay call for `CCCOC(=O)c1cc(O)c(O)c(O)c1` ?
A) f

Q) // outcome(item) with item = `CCN(CC)C(=O)c1cc(S(=O)(=O)Cc2ccccc2)c(N2CCC(c3ccccc3)CC2)cc1N(CC)CCN(C)C`
A) t

Q) Could you check what this test reported for `CC(C)(C)c1csc(-c2cc3cc(OCc4ccccc4CC(=O)O)ccc3o2)n1` ?
A) t

Q) Outcome? `CCCC(=O)OCCC(C)C`
A) f

Q) Any idea what this test logged for `CCCCCCCCCCCO` ?
A) f

Q) Field: outcome | Entry: `O=c1ccc2ccccc2o1`
A) f

Q) In this assay, the call recorded for `CC/C(=C(/CC)c1ccc(O)cc1)c1ccc(O)cc1` was what?
A) t

====

- ASSAYED SYSTEM: Peroxisome proliferator-activated receptor gamma (Homo sapiens) (UniProt P37231)
- Sequence (P37231 whole entry, looked up): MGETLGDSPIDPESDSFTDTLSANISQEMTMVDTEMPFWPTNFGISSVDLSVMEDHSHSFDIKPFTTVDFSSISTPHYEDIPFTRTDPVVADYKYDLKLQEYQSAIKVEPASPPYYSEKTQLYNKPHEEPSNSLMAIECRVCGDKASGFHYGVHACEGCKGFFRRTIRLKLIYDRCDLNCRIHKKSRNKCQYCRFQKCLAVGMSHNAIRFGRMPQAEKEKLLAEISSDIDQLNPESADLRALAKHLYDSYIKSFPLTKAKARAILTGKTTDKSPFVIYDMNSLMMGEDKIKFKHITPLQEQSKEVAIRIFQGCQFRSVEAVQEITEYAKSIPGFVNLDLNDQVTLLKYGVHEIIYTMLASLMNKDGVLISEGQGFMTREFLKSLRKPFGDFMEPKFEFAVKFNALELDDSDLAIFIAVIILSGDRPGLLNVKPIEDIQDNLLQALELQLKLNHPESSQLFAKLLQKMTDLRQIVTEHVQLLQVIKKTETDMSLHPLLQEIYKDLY
- TEST SUMMARY: NVS_NR_hPPARg: NovaScreen (NVS) Nuclear Receptor Binding Assay for human Peroxisome Proliferator-activated Receptor gamma (PPARg) (AID 2283370)
Records with an inconclusive call do not appear. The source made the active and inactive calls. The calls were made as follows: active = hit-call score of the fitted dose curve at least 0.9, where 1 is the maximum; inconclusive = response in the unintended direction; inactive = score below 0.9.
Write down the outcome that applies. Available outcomes: label 1 for active, label 0 for inactive

1) O=CCCCC=O
label 0

Q) Called result for `O=C(O)c1ccccc1-n1cc(C(=O)O)c(=O)c2cc(Nc3c(F)cc(F)cc3Cl)c(Cl)cc21`
A) label 0

Q) Hi, sorry to bother you, what did the test record for `O=C(O)Cn1c(=O)n(Cc2ccc(Br)cc2F)c(=O)c2ccc(Cl)cc21` ?
A) label 1

Q) Call for entry `C[C@]12CC[C@@H]3c4ccc(O)cc4CC[C@H]3[C@@H]1CC[C@H]2O` :
A) label 0

Q) Which outcome did this test record for the molecule `CCCCCCCC[Si](OCC)(OCC)OCC` ?
A) label 0

Q) Record request — test call for `O=c1c(-c2ccc(O)cc2)coc2cc(O)cc(O)c12`
A) label 1

Q) # lookup: test call for `CC1=CC(=O)/C(=C(/C)O)C(=O)O1`
A) label 0

Q) # outcome recorded in this test, key = `O=C1CCC(C2CCCCC2)CC1`
A) label 0

Q) Answer briefly: the call reported for `CC(C)(O)c1ccc(CNC(=O)c2cccnc2Oc2ccc3nonc3c2)cc1` in this assay.
A) label 0

Q) Field: outcome | Entry: `CCCCCc1ccc(N)cc1`
A) label 0

Q) Dear colleague, could you share the recorded outcome for CN1C(=O)N(c2ccccc2Br)Cc2cnc(Nc3ccc4c(c3)OCC(CO)O4)nc21 (centres undefined) when you have a moment?
A) label 1

Q) State the result this test recorded for `CCCOC(=O)c1cc(O)c(O)c(O)c1` .
A) label 0

Q) Recorded test call requested for `CCCCCCCCOC(=O)c1cc(O)c(O)c(O)c1`
A) label 1

Q) For `CN(C)c1ccc(C(=C2C=CC(=[N+](C)C)C=C2)c2ccc(N(C)C)cc2)cc1` , which call appears in the assay record?
A) label 1
